- measurement-target: BCL6 (Homo sapiens, UniProt P41182)
- Construct: endogenous in cells; host or cells: T47D breast cancer epithelial cells
- method: Immunofluorescence protocol for high content imaging of BCL6 (degradation) in T47D cells, 3 days compound treatment
- Format: cell-based
- conditions: T47D cells, 3 days compound treatment, read-out: Mean DC50 (nM)* category
The following compounds are listed with their measured DC50 values.

Take a look at these entries with their results.
CNC(=O)COc1cc2cc(Nc3nc(N4CCC(F)(CN5CC(N6CCC(c7ccc8c(c7)C(=O)N(C7CCC(=O)NC7=O)C8=O)CC6)C5)CC4)ncc3Cl)ccc2n(C(C)C)c1=O (centres unmarked) [Compound 97]    < 10 nM
CNC(=O)COc1cc2cc(Nc3nc(N4CCC(CN5CC[C@]6(CCN(c7ccc8c(c7)CN([C@H]7CCC(=O)NC7=O)C8=O)C6)C5)CC4)ncc3Cl)ccc2n(C(C)C)c1=O [Compound 1]    < 10 nM
CCn1c(=O)c(OCC(=O)NC)cc2cc(Nc3nc(N4CCC(O[C@H]5C[C@H](N6CCC(c7cccc8c7C(=O)N(C7CCC(=O)NC7=O)C8=O)CC6)C5)CC4)ncc3Cl)ccc21 (some centres unmarked) [Compound 140]    50 to 100 nM
CNC(=O)COc1cc2cc(Nc3nc(N4CCC(OC5CCC(N6CCC(c7ccc8c(c7)C(=O)N(C7CCC(=O)NC7=O)C8=O)CC6)C5)CC4)ncc3Cl)ccc2n(C(C)C)c1=O (centres unmarked) [Compound 42]    10 to 50 nM

// next entry
GET /values?readout=DC50&item= CNC(=O)COc1cc2cc(Nc3nc(N4CCC(O[C@H]5C[C@H](N6CCN(c7ccc8c(c7Cl)CN(C7CCC(=O)NC7=O)C8=O)[C@@H](C)C6)C5)CC4)ncc3Cl)ccc2n(C(C)C)c1=O (some centres unmarked) [Compound 206]
< 10 nM
